Record form. Attribute: IC50. Fill in for each entry.
- Tested on: H9c2;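 further: cell death induced by hydrogen peroxide oxidative stress; compound pretreatment for 60 min then peroxide exposure for 2 h; potency is for protecting the cells against peroxide damage rather than for killing them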;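 further: confirmatory concentration-response retest of ultra-high-throughput screening hits for modulation of myocardial damage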
- protocol: cells
- Type: functional, cell-based
- settings: Rattus norvegicus, H9c2, Myocardium
Calls of active or inactive are those of the source.

Consider the compound `N#C/C(=C\c1ccc(-c2cccc([N+](=O)[O-])c2)o1)C(=O)NCCN1CCOCC1` . State its measured IC50.
> 79 µM (inactive)

Consider the compound `O=C(CNC(=O)c1[nH]cnc1C(=O)NCc1ccccc1)OCc1ccccc1` . State its measured IC50.
40.4 µM (inactive)

Consider the compound `CC(=O)Nc1cc(-c2ccc(C(=O)N3CCOCC3)cc2)cn2c(-c3ccc(C(C)=O)cc3)cnc12` . State its measured IC50.
> 79 µM (inactive)

Consider the compound `COc1c(O)cccc1/C=N/NC(=O)Cn1ccnc1C` . State its measured IC50.
> 79 µM (inactive)

Consider the compound `NC(=O)c1ccc(NC(=O)COc2cccc3c2CCNC3=O)cc1` . State its measured IC50.
> 79 µM (inactive)

###

Record form. Attribute: IC50. Fill in for each entry.
- system.tested: Fatty acid synthase (Homo sapiens, UniProt P49327)
- Sequence (P49327 whole entry, the tested form may be a part): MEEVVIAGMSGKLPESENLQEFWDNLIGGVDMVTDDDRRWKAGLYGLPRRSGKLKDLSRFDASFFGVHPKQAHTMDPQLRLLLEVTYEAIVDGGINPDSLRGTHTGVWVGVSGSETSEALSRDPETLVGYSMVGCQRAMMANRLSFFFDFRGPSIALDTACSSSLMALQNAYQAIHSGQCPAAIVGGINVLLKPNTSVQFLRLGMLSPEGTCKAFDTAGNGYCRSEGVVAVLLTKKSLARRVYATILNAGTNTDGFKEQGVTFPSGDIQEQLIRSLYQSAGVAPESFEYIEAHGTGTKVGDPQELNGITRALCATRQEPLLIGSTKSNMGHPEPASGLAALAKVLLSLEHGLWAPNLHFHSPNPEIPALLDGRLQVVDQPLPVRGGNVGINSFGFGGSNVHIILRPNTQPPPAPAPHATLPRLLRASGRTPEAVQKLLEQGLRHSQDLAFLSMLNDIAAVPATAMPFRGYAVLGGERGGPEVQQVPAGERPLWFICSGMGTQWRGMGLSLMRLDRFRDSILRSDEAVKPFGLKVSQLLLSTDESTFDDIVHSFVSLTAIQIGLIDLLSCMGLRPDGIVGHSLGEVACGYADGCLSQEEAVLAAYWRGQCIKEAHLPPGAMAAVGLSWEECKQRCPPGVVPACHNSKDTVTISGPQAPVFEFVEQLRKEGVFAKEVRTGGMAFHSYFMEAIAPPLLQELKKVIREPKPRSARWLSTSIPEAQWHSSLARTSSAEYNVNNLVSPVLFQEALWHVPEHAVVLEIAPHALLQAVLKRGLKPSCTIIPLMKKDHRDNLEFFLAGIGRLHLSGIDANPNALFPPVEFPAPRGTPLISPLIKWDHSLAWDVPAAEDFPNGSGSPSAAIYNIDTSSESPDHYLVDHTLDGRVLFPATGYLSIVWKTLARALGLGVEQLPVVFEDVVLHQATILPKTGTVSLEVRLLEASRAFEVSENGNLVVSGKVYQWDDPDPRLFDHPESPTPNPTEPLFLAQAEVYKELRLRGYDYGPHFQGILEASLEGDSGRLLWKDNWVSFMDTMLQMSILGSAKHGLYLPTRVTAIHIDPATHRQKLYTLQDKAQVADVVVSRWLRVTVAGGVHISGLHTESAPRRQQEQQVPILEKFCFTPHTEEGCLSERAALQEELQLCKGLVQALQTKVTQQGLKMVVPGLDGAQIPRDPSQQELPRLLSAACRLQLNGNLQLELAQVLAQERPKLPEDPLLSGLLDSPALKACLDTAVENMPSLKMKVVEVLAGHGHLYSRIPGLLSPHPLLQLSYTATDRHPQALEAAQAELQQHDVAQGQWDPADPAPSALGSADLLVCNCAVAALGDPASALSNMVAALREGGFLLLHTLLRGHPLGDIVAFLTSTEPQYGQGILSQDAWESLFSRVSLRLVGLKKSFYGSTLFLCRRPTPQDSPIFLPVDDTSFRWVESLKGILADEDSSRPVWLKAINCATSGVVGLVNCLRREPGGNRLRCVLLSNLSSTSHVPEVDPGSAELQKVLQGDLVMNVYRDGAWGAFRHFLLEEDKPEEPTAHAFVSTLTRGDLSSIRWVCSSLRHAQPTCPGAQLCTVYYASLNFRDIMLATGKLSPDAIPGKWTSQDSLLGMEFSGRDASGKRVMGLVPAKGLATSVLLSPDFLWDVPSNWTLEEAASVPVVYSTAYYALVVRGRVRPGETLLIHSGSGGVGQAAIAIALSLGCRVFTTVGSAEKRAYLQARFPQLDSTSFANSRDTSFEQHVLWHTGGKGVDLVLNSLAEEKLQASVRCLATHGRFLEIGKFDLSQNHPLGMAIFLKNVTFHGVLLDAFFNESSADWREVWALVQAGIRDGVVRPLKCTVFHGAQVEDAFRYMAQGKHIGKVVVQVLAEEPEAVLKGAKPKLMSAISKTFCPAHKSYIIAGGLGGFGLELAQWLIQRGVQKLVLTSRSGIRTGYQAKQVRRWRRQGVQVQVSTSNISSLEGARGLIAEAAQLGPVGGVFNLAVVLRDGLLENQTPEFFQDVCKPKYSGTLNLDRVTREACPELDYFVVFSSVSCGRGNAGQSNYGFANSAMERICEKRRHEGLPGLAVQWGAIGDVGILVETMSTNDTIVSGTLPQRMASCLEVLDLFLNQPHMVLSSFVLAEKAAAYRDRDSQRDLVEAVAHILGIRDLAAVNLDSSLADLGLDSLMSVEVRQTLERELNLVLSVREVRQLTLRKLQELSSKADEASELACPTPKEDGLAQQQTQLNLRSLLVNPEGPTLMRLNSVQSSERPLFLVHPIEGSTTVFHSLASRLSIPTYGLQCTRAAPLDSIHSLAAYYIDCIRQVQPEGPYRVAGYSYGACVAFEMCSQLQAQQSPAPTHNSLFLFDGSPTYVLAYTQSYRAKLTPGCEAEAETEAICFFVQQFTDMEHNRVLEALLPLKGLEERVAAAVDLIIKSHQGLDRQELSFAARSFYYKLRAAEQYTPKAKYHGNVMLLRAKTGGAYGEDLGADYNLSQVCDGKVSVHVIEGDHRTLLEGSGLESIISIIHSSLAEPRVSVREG
- protocol: FAS thioesterase domain inhibitors, dose response, biochemical, endpoint fluorescence intensity, uHTS hits (AID 624327);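 further: fluorescence from hydrolysis of an O-methyl fluorescein acyl ester substrate by the enzyme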
- Type: functional
Calls of active or inactive are those of the source.

Consider the compound `COC(=O)c1ccc(CNC(=O)/C=C/c2cc([N+](=O)[O-])ccc2OC(F)F)cc1` . State its measured IC50.
3.27 µM (active)

Consider the compound `CCOc1cc(/C=C(/C#N)c2ccc(Cl)cc2)cc(Cl)c1OCC(=O)O` . State its measured IC50.
6.78 µM (active)

Consider the compound `O=C(CN1C(=O)S/C(=C\c2ccccc2)C1=O)Nc1cc([N+](=O)[O-])ccc1O` . State its measured IC50.
2.94 µM (active)

Consider the compound `COc1ccc(Cn2c(C)nc3ccc([N+](=O)[O-])cc3c2=O)cc1` . State its measured IC50.
4.97 µM (active)

Consider the compound `O=C(COC(=O)c1ccc(Cl)c([N+](=O)[O-])c1)NC1CCCC1` . State its measured IC50.
3.12 µM (active)

Consider the compound `COc1ccc([N+](=O)[O-])cc1C(=O)Nc1ccc(Cc2ccncc2)cc1` . State its measured IC50.
10.9 µM (active)

Consider the compound CSCCC(NC(=O)c1ccc(Cl)c([N+](=O)[O-])c1)C(=O)N1CCN(C/C=C/c2ccccc2)CC1 (configuration not stated) . State its measured IC50.
8.52 µM (active)

Consider the compound CC1CC(C)CN(C(=O)COC(=O)c2cc([N+](=O)[O-])ccc2N2CCOCC2)C1 (configuration not stated) . State its measured IC50.
1.3 µM (active)

Consider the compound `Cc1csc(NC(=O)CCNC(=O)c2ccc([N+](=O)[O-])cc2)n1` . State its measured IC50.
6.85 µM (active)

Consider the compound `CN(C(=O)COC(=O)c1cc([N+](=O)[O-])ccc1N1CCOCC1)C1CCCCC1` . State its measured IC50.
0.383 µM (active)

Consider the compound `CC(C)(C)c1ccc(CSc2ccc(S(=O)(=O)N3CCOCC3)cn2)cc1` . State its measured IC50.
1.03 µM (active)

Consider the compound CCC(C)n1c(=S)[nH]c2c(sc3ccc([N+](=O)[O-])cc32)c1=O (configuration not stated) . State its measured IC50.
17.1 µM (active)

###

- system.tested: UniProtKB P49327
- protocol: FAS thioesterase domain inhibitors, dose response, biochemical, kinetic fluorescence intensity (AID 624326);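 further: rate of fluorescence rise from hydrolysis of a fluorogenic O-methyl fluorescein ester substrate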
- Assay type: functional
Activity calls are given as the source filed them.
readout.label: IC50

Consider the molecule CSCCC(NC(=O)c1ccc(Cl)c([N+](=O)[O-])c1)C(=O)N1CCN(C/C=C/c2ccccc2)CC1 (configuration not stated) . State its measured IC50.
6.62 µM (active)

Consider the molecule `O=C(COC(=O)c1ccc(Cl)c([N+](=O)[O-])c1)NC1CCCC1` . State its measured IC50.
3.41 µM (active)

Consider the molecule `COC(=O)c1ccc(CNC(=O)/C=C/c2cc([N+](=O)[O-])ccc2OC(F)F)cc1` . State its measured IC50.
4.91 µM (active)

Consider the molecule CCC(C)n1c(=S)[nH]c2c(sc3ccc([N+](=O)[O-])cc32)c1=O (configuration not stated) . State its measured IC50.
15.5 µM (active)

Consider the molecule `COc1ccc(Cn2c(C)nc3ccc([N+](=O)[O-])cc3c2=O)cc1` . State its measured IC50.
3.61 µM (active)

Consider the molecule `CC(C)(C)c1ccc(CSc2ccc(S(=O)(=O)N3CCOCC3)cn2)cc1` . State its measured IC50.
0.683 µM (active)

Consider the molecule CC1CC(C)CN(C(=O)COC(=O)c2cc([N+](=O)[O-])ccc2N2CCOCC2)C1 (configuration not stated) . State its measured IC50.
1.22 µM (active)

###

- system.tested: Large T antigen (Simian virus 40, UniProt P03070);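 further: Confirmatory-stage PubChem screen for compounds that inhibit SV40 T antigen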
- Sequence (P03070 whole entry): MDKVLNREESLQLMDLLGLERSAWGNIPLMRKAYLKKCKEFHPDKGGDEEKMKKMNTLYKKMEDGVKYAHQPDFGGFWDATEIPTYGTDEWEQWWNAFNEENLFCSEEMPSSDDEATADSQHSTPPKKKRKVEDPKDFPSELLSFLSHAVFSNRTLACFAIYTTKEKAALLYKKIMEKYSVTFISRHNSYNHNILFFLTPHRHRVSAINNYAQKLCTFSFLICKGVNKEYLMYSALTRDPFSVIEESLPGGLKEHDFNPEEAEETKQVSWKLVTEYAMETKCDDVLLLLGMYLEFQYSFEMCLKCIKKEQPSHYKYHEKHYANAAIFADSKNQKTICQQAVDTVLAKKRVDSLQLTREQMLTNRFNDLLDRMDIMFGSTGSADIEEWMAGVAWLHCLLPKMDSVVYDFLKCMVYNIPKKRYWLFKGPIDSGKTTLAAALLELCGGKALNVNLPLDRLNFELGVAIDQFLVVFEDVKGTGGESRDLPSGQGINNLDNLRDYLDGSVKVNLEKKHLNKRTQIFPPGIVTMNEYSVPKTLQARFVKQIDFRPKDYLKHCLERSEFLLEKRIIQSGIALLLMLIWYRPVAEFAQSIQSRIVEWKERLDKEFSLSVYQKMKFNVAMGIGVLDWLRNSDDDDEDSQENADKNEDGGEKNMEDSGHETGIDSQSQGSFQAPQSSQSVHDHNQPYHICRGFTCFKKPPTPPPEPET
- Format: functional, Betapolyomavirus macacae
Activity calls are given as the source filed them.
readout.label: IC50

Enter recorded IC50 with Large T antigen (Simian virus 40, UniProt P03070) for `COc1cc(/C=C(\C#N)C(=O)c2ccc(O)c(O)c2)cc(I)c1O` here.
7.17 µM (active)

Enter recorded IC50 with Large T antigen (Simian virus 40, UniProt P03070) for `CN(C)c1ccc(Nc2cc(Cl)ncn2)cc1` here.
7.46 µM (active)

Enter recorded IC50 with Large T antigen (Simian virus 40, UniProt P03070) for `Cc1ccc(/C=N/n2c(S)nnc2-c2ccco2)cc1` here.
33.6 µM (active)

Enter recorded IC50 with Large T antigen (Simian virus 40, UniProt P03070) for `Nc1ccc(-c2nc3c(Cl)cc(N)cc3[nH]2)cc1` here.
9.32 µM (active)

Enter recorded IC50 with Large T antigen (Simian virus 40, UniProt P03070) for `COc1cc(/C=C/C(=O)c2ccc([N+](=O)[O-])o2)ccc1O` here.
8.65 µM (active)

Enter recorded IC50 with Large T antigen (Simian virus 40, UniProt P03070) for `CCOC(=O)CNc1c(-c2ccc(O)cc2)nc2ccc(Cl)cn12` here.
15.9 µM (active)

Enter recorded IC50 with Large T antigen (Simian virus 40, UniProt P03070) for `COc1cc(/C=N/NC(=O)CNc2nnc(O)nc2O)ccc1O` here.
8.93 µM (active)

Enter recorded IC50 with Large T antigen (Simian virus 40, UniProt P03070) for `COc1cc(/C=N/NC(=O)Cn2nnc3ccccc32)ccc1O` here.
6.59 µM (active)

Enter recorded IC50 with Large T antigen (Simian virus 40, UniProt P03070) for `O=C(N/N=C/c1ccc(O)cc1O)/C(=C/c1ccccc1)CCO` here.
19.4 µM (active)

Enter recorded IC50 with Large T antigen (Simian virus 40, UniProt P03070) for `COc1cc(/C=N/NC(=O)CSc2ccccn2)ccc1O` here.
9.69 µM (active)

###

- system.tested: Sentrin-specific protease 7 (Homo sapiens, UniProt Q9BQF6);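 further: Luminescence-based dose-response confirmation of ultra-high-throughput screening hits, measuring inhibition of SENP7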
- Sequence (Q9BQF6 whole entry): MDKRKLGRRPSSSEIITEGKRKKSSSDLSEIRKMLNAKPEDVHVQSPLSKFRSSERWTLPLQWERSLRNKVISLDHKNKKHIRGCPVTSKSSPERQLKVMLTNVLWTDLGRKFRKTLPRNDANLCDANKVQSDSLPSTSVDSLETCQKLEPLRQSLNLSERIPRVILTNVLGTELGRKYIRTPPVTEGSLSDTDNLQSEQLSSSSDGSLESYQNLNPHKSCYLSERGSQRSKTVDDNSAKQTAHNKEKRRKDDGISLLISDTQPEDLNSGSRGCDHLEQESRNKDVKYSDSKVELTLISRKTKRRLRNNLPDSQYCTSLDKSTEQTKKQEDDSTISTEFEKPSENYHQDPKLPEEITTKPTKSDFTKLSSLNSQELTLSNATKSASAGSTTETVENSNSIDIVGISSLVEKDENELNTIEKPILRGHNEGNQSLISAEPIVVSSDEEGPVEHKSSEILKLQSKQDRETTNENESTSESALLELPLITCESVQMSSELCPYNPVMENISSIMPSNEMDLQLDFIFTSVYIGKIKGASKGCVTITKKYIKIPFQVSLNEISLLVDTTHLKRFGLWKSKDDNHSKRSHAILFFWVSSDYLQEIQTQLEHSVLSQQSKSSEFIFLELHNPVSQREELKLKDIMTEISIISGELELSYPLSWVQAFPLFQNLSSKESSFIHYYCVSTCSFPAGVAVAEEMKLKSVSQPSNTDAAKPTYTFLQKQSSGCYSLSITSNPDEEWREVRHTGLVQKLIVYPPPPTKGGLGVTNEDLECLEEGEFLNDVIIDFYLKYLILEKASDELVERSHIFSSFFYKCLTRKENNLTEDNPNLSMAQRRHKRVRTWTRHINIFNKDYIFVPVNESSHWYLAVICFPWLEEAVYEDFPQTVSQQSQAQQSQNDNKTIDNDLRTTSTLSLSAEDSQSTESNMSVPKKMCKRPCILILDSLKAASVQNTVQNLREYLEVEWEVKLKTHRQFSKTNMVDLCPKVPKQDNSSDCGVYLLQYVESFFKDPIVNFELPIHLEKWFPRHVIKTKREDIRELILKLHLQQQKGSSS
- Assay type: functional
Calls of active or inactive are those of the source.
readout.label: IC50

Consider the molecule Cc1c(NC(=O)C(C)OC(=O)c2ccc([N+](=O)[O-])s2)c(=O)n(-c2ccccc2)n1C (stereo not given) . State its measured IC50.
10.4 µM (active)

Consider the molecule `COc1ccc(O)c(-c2cc(-c3cccc(Br)c3)[nH]n2)c1` . State its measured IC50.
11.3 µM (active)

Consider the molecule `Cc1nc(N/N=C\c2ccc3c(c2)OCO3)sc1C` . State its measured IC50.
12 µM (active)

Consider the molecule `COc1ccc2oc3ccc(OC)cc3c(=O)c2c1` . State its measured IC50.
9.8 µM (active)

Consider the molecule OC(c1ccc(OCc2ccccc2)cc1)c1nnc(-c2ccccc2)o1 (stereo not given) . State its measured IC50.
12.8 µM (active)

###

Each entry below carries its measured AC50, system: Cytochrome P450 1A2 (Homo sapiens, UniProt P05177).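 Further: PubChem cytochrome P450 panel assay, CYP1A2 panel member.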
Sequence (P05177 whole entry): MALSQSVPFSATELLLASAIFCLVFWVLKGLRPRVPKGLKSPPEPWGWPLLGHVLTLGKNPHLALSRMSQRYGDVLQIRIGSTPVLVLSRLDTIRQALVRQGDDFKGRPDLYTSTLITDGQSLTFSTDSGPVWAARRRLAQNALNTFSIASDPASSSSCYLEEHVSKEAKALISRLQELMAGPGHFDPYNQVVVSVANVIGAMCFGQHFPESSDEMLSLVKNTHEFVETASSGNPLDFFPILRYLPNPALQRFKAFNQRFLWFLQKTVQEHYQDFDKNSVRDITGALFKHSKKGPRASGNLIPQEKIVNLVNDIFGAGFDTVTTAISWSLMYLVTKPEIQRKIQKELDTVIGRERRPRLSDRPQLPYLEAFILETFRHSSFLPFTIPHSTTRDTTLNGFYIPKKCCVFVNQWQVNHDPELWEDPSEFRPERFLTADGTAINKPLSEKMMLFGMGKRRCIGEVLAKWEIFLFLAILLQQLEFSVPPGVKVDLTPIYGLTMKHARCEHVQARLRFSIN

Consider the compound Cc1ccc(-c2nnc(C)c(N3CC(C)OC(C)C3)n2)cc1 (stereo not drawn) . State its measured AC50.
4.47 µM (inconclusive)

Consider the compound `COc1cccc(NC(=O)COC(=O)c2nc3nccc(C)n3n2)c1` . State its measured AC50.
17.8 µM (inconclusive)

Consider the compound COc1ccc(CN2C(=O)CN(C3CCCCCC3)C(=O)C2c2ccc(OC)c(OC)c2)cc1 (stereo not drawn) . State its measured AC50.
35.5 µM (inconclusive)

Consider the compound `CC(C)C(=O)N/N=C/c1ccc(OCc2ccccc2)cc1` . State its measured AC50.
15.8 µM (inconclusive)

Consider the compound CCCc1ccc(C2C3=C(CC(C)(C)CC3=O)N=C3C2=C(O)c2ccccc23)cc1 (stereo not drawn) . State its measured AC50.
6.31 µM (inconclusive)

Consider the compound `CC(/C=N/NC(=O)c1cccc([N+](=O)[O-])c1)=C\c1ccccc1` . State its measured AC50.
1.78 µM (inconclusive)

Consider the compound `N#C/C(=C\c1ccc(N2CCCC2)c([N+](=O)[O-])c1)c1nc2ccccc2[nH]1` . State its measured AC50.
11.2 µM (inconclusive)

Consider the compound CN(C)CCNC(=O)C(C(=O)c1ccc(F)cc1)n1ccccc1=O (stereo not drawn) . State its measured AC50.
0.631 µM (inconclusive)

Consider the compound `CS(=O)(=O)Nc1cccc(-c2nc(NCCN3CCOCC3)c3ccccc3n2)c1` . State its measured AC50.
25.1 µM (inconclusive)

Consider the compound `CC(C)OC(=O)c1cc2c(OC[C@@H](O)CNC(C)(C)C)cccc2[nH]1` . State its measured AC50.
31.6 µM (inconclusive)

Consider the compound `O=C(N/C(=C/c1ccco1)C(=O)N1CCCCCC1)c1cccs1` . State its measured AC50.
17.8 µM (inconclusive)

Consider the compound `S=C(Nc1cccc(Cl)c1)NC1CCCCC1` . State its measured AC50.
17.8 µM (inconclusive)

Consider the compound `O=C(c1ccc(F)cc1)C1CCN(CCn2c(=S)[nH]c3ccccc3c2=O)CC1` . State its measured AC50.
15.8 µM (inconclusive)

Consider the compound `COc1ccc(CNc2ncncc2-c2c(C)noc2C)c(OC)c1` . State its measured AC50.
25.1 µM (inconclusive)

Consider the compound O=C(Nc1cccc(C(F)(F)F)c1)C1CCCN1S(=O)(=O)c1cccc2cccnc12 (stereo not drawn) . State its measured AC50.
3.16 µM (inconclusive)

Consider the compound COc1ccc(CCNC(=O)C2CCCN(Cc3nc(-c4cccc(Cl)c4)oc3C)C2)cc1OC (stereo not drawn) . State its measured AC50.
15.8 µM (inconclusive)

Consider the compound `CC(CO)(CO)/N=C\c1cc(I)cc(I)c1O` . State its measured AC50.
1.58 µM (inconclusive)

Consider the compound `C[C@@H](C(=O)Cc1ccc2ccccc2c1)[C@@H]1C[C@@]1(C)[C@@H](NP(=O)(c1ccccc1)c1ccccc1)c1ccccc1` . State its measured AC50.
10 µM (inconclusive)
